Where these numbers come from: ChEMBL document CHEMBL5634072

Assay System: Interleukin-1 receptor-associated kinase 4 (Homo sapiens, UniProt Q9NWZ3)
Assay Procedure: Inhibition of IRAK4 (unknown origin) by Ambit kinase assay
pIC50: −log10 of the molar value.
Measured Property: pIC50

(P) CC(C)(O)CCn1cc2cc(NC(=O)c3cccc(C(F)(F)F)n3)c(C3COC3)cc2n1
(Q) Cc1cc(-c2nc(C(=O)Nc3cc4cn(CCC(C)(C)O)nc4cc3C(C)(C)O)co2)ccn1
Query: Lab note: check whether P or Q shows the higher recorded pIC50. Please identify the chosen entry by its label.
Reply: Q
(Q: 9.26, P: 8.80)

###

Assay System: Interleukin-1 receptor-associated kinase 4 (Homo sapiens)
Sequence (Q9NWZ3 whole entry): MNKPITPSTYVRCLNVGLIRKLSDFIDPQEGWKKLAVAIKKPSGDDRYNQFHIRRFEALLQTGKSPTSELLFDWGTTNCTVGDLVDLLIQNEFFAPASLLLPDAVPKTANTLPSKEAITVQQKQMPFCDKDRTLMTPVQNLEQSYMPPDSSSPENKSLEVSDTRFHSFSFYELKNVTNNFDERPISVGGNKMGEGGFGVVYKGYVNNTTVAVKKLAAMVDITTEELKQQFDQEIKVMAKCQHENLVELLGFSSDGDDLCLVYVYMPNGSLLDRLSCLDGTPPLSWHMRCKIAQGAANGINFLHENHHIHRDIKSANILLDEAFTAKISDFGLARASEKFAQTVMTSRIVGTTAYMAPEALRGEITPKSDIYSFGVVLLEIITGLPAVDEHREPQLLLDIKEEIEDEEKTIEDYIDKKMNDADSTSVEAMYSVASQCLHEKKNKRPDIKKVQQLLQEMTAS
Assay Procedure: Inhibition of IRAK4 (unknown origin)
Measured Property: EC50 (nM)
Reply numerically in nM, unit not repeated.

Query: Can you share its EC50? I mean this compound: CCO[C@H]1CC[C@@H](n2cc(NC(=O)c3csc(-c4cn[nH]c4)n3)c(-c3nc(F)ccc3F)n2)CC1
Reply: 195
